Measured inhibition at 100 µM of individual entries
# MEASUREMENT TARGET: UniProtKB O75762
# Sequence (O75762 whole entry): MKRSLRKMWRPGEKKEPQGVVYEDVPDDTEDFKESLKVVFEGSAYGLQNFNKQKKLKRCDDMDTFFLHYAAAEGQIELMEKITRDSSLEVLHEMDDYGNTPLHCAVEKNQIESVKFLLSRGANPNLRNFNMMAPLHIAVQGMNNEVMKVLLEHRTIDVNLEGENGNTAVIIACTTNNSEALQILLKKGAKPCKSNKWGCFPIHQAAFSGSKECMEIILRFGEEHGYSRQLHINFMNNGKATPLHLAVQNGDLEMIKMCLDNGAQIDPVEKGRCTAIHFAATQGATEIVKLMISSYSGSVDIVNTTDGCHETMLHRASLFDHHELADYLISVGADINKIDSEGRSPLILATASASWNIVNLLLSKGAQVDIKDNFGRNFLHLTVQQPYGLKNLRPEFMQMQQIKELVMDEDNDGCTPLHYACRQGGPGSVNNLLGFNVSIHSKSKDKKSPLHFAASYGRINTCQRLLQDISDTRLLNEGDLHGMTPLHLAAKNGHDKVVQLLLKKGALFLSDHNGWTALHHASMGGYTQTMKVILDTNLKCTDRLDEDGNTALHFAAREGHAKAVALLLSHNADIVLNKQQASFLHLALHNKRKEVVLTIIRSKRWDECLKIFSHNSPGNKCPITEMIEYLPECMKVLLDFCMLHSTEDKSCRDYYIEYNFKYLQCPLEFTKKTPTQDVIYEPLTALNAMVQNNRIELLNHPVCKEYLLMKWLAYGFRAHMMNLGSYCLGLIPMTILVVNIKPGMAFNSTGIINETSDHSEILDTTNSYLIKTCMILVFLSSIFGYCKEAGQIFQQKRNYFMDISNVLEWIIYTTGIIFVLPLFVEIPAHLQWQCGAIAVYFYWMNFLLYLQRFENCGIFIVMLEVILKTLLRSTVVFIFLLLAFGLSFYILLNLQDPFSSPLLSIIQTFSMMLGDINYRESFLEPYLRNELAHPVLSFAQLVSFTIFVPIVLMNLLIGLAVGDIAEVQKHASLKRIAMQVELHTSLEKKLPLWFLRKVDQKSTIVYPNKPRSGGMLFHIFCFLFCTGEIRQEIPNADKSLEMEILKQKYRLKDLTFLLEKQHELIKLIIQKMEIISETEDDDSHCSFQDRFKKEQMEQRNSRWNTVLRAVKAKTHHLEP
# METHOD: FLIPR Ca2+ assay, reduction of hydrogen peroxide activation of TRPA1
# Assay type: cell-based
# Parameters: expressed in transfected cells
# STUDY CONDITIONS: compound 100 μM against 200 μM hydrogen peroxide; Sets 1-4; read-out: % Reduction of Hydrogen Peroxide TRPA1 Activation
The figure you give is taken to be in %; do not add the unit.

CCCCCCCC(C)O (centres unmarked): 56.5
CCOc1nccnc1C: 54.6
CCC(C)(O)CCc1ccccc1 (centres unmarked): 68

Recorded inhibition at 100 µM of CCC(C)CS (centres unmarked) , please. 54.5

Here is the next compound: C=CC(CCCCC)OC(C)=O (centres unmarked) [1-octen-3-yl acetate] 54.2

Here is the next compound: CCc1ccccc1S 54.6
